meta.source: PubChem BioAssay AID624491

- Test system: D54 ERlucT glycosylation luciferase reporter, luminescence, 24 h
- Protocol description: N-linked glycosylation inhibitors, luciferase reporter, dose response, D54 ERlucT cells, luminescence, cherry-picks (AID 624491);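 active = fitted curve crossing a set activation limit at or below the highest valid dose tested; inconclusive = flat fit at 30 to 70% activation, or poor fit; inactive = the rest, including signal decreases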;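 also: signal gain reflects blocked N-linked glycosylation of a luciferase reporter; actives raise luciferase signal so AC26 marks activators of the reporter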
Write down one outcome, taken from active, inactive

Look over these answered cases.
>>> category("OCC1OC(n2cnc3c(SCc4ccccc4)ncnc32)C(O)C1O (stereo not drawn)")
"active"
>>> category("COc1cc(/C=N/n2cnc3scc(-c4cccs4)c3c2=O)cc(OC)c1OC")
"active"
>>> category("CCOc1cc(C)nc(NCc2ccccc2)n1")
"active"
>>> category("COc1ccc(CNC(=O)c2cccc3c(-c4cnn(C)c4)coc23)cc1OC")
"active"
>>> category("COc1cc(-c2nc(-c3ccccc3)c(-c3cccs3)[nH]2)cc(OC)c1OC")
"active"

QUERY: Per the records of this test, what outcome belongs to `COc1ccc(S(=O)(=O)N2CCCCC2)cc1NC(=O)c1[nH]c(C)c(C(C)=O)c1C` ?
RESULT: active

QUERY: Per the records of this test, what outcome belongs to `CCN(CC)S(=O)(=O)c1ccc(N2CCOCC2)c(NC(=O)c2[nH]c(C)c(C(C)=O)c2C)c1` ?
RESULT: active

QUERY: Per the records of this test, what outcome belongs to `Cc1nc(N=C(N)N)nc2c(C)cccc12` ?
RESULT: active

QUERY: Per the records of this test, what outcome belongs to `CC(=O)Nc1sc(C)c(C)c1C(=O)OCC(=O)N(CC(C)C)c1c(N)n(Cc2ccccc2)c(=O)[nH]c1=O` ?
RESULT: active

QUERY: Per the records of this test, what outcome belongs to `CC[C@H](C)[C@H](NC(=O)c1ccc(Cl)cc1)C(=O)OCC(=O)c1ccc2c(c1)NC(=O)CO2` ?
RESULT: active

QUERY: Per the records of this test, what outcome belongs to `COc1cc(OC)cc(C(=O)N/N=C/c2ccc(OC)c(COc3ccc(F)cc3)c2)c1` ?
RESULT: active

QUERY: Per the records of this test, what outcome belongs to `COc1ccc(OC(=O)N2C/C(=C/c3ccccc3)C(=O)/C(=C\c3ccccc3)C2)cc1` ?
RESULT: active

QUERY: Per the records of this test, what outcome belongs to `Nc1nc(-c2ccccc2)cc(N2CCCCC2)n1` ?
RESULT: active
